# run-description: protease stability score; higher = more stable; yeast display proteolysis, trypsin and chymotrypsin;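 note: log10 excess protease needed over predicted unfolded state with 0 meaning unfolded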
Catalogue of protease stability score readings, one per entry.
Keep the answer to the number alone.

- sequence-string: "DDDQARKFVNIVQTGDEDKLLELAPPDVRVKVGDHRVHGRENVKRMVEKLKKSVDHFSIRQIHVHNGRVHVDMDVNVNGQTIRAEYVFVAHNGKLEEISIEVTDETVHDLMTRILS"
  protease stability score: 0.665
- sequence-string: "DQDRLEEVRRRMTTGNPDDLRNLMDEDVTVQYGDKEVHGRDEAVDRLEKLLRQVDHLRIDSMDAHGDEFNVHLSAVVNGRQVNFVVSLRIHNGKIKHFMQQATDEDQQKRLEHAWD"
  protease stability score: 1.23

// moving on: another record for protease stability score
Fill in: protease stability score of DEKKALTLAKKAFEVIKKGDKEKAKKLGKPDVKYEYLDKKYTGPEAMEHIVEYVQKLGMEVRVKRNEEKGGTVRVDFDYQRGDQQVRTTAEVEYEGDKLKRFRVEMSEEVKKHITQG is ___
0.093

----------
# run-description: protease stability score; higher = more stable; yeast display proteolysis, trypsin and chymotrypsin;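 note: log10 excess protease needed over predicted unfolded state with 0 meaning unfolded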
metric-name: protease stability score
Keep it simple and answer with nothing but the number.

Example entries and their recorded answers appear below.
- sequence-string: "EEEKMKKIIKRMFDAVQKGNTEELRKYGKEDVKFEFIDDRNEGPQQYAERMKKMMKHGVQLEIKEVQLKDNTATMYTVVEYGNRRVTAKAEFEYDGGKLKEARVKISEEAKKVIKTG"
  protease stability score: 0.119
- sequence-string: "DQEKFERMAHKANRALEQNDEETFDELADENARMIYGDKRYTGRERVREAVQEIDKRVDHVQVDRVNVHGERAQINAVFHFNGKTQRDNVNMRFSNGKLQEMRFDPDVIRNLEE"
  protease stability score: -0.131
- sequence-string: "EEHVKHIVDQLIKVLQHNDEKLWERLVDPNAEIRVGDKSIRGRERFSEEVRRQKHQARMQWKSVQVDVHGDKAVLHFSAEFQVNGQPADFDVTMHIQVHNGTVKRMFVQVPEKDVQRKTS"
  protease stability score: 0.459
- sequence-string: "DEDAKKQVETMIRLIERGNEKEIKKQMDPNATYQVGDNRLHGMDQVNKHLKDLKEQMRFVFDVKSITVRGDKVDIDLQLDKNENGRPDKEDARMIVHVHNGSVKSVIVTTRG"
  protease stability score: 0.143

Pending sequence:
# lookup: protease stability score of DEDARRRVHEFFEAIENNDREKLKELADPNVQANYGDKQVRGREQLAEWVDKLHKELRVHFRLKSLDNRGDKIEIRMRVILDINGRPQTQDVTMEMRFHNGRIKHVQVHVDERQLKQKKK
0.942

----------
# run-description: protease stability score; higher = more stable; yeast display proteolysis, trypsin and chymotrypsin;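 note: log10 excess protease needed over predicted unfolded state with 0 meaning unfolded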
# protease stability score per record follows
Simply state the number, no unit and no words.

Check out these entries, answers already filled in.
- sequence-string: "DERNERVFHHFVEAISFNDPQQARRNADKDVKFDVGEKVLHGREEWDKQMEHNKKHMRQDMRVKEVSTSGDKVTARVEQEHNHNGKPSTRDVKMSVEINNGKIKSFRLTTVS"
  protease stability score: -0.129
- sequence-string: "DDHALERLRSLNHIEDDGNEEKVEEMLDPNATVEVGDKRYHGSHHYVDHVRQRKEKQRYSQQFKHFHREPGRIVVHATAKFQVNGKPFKYTLTQVARLSNGKFTDIKVDVPERLKEQRQQ"
  protease stability score: -0.258

Record request: protease stability score value, item DERALRNWRRLETAVNTNNPDKVQKLMDKDVKYEVGDKTIRGRRHAAQSLVERVNKIHLDIKSVTATDSGDNVRIRLDAVRNHNGRPHRDVLNITVKADNGKIVSVKTTKDG
0.001

Also check DDKEKAEKFLTKWVEAIKTGNEEQLNELADPNVRFKYGDRVIHGREQQAKHNKELRERADRMEFRVDDVDIRPGKVVVHARYTVNINGKEETHQYTATADVKNGRLQITEQQNS
-0.092

How about DEDQLKVALKAIRAQNNNNPDELLKLLDENVRLQYGDKTVHGREEVKEMIKHWLSHWRWKIDVRRYSVHNGVARIEALVTINVNGKPQTFTVVIHVRAENGRIKEMHYHFDEEDQEKIRS ?
1.37
